- methodDescription: in vivo
- testContext: male, C57Bl/6, mouse, in vivo, ip, 1 mg/kg, Brain concentration
- Method: The animals were sacrificed after 60 min, and brain and blood were collected. For the assessment of plasmatic concentration, 20 μL of plasma was treated with 100 μL of methanol in a test tube. The tube was vortexed for 30 s. Then, the sample was centrifuged for 10 min at 14680 rpm, at 4 °C. 90 μL of supernatant was dried under nitrogen, reconstituted in 150 μL of MeOH, and then injected into the UHPLC–MS/MS. […]
measuredEndpoint: concentration at 60 min (ng/g)
Answers are plain numbers, in ng/g.

Measured concentration at 60 min of CC(C)(C)CC(=O)Nc1ccc(NCc2ccc(C(F)(F)F)cc2)c(F)c1N : 727000

###

- methodDescription: Photostability under UV-visible light with HPLC analysis (degradation, dimer formation)
- Format: physicochemical
- testContext: 10 μM, buffered aqueous solution pH 7.4, 3 h UV-visible light; ± SD
Assign class by % Degradation (3h, UV): not lower than 70% means Fulfilled; lower than 70% means Not fulfilled.

>>> category("CCCCCCC(=O)Nc1ccc(NCc2ccc(C(F)(F)F)cc2)cc1N [compound 13]")
"Not fulfilled"
>>> category("CC(C)(C)CC(=O)Nc1ccc(NCc2c(F)cccc2F)cc1N [compound 43]")
"Fulfilled"
>>> category("CCCCCCC(=O)Nc1ccc(NCc2ccccc2F)cc1N [compound 52]")
"Fulfilled"

Moving on to another molecule below.
Q) Reported % Degradation (3h, UV) at or above 70%? CCOC(=O)Nc1ccc(NCc2ccc(F)cc2)cc1N [RET, retigabine]
A) Not fulfilled

###

- testedOn: Kv7.2/Kv7.3 channels (Homo sapiens, UniProt O43525+O43526)
- methodDescription: FluxOR thallium-sensitive fluorescence-based assay in CHO cells stably expressing Kv7.2 + Kv7.3
- Assay type: cell-based
- Set-up: expressed in transfected cells
- testContext: 10 μM, compared with retigabine or the reference compound of the subseries
- Description: While assay robustness in Kv7.2/Kv7.3-expressing cells was high (Z′ factor > 0.5),[27] the Z′ factor calculated in CHO cells expressing Kv7.2 subunits alone was <0.5; thus, all subsequent pharmacological screens were performed in Kv7.2/Kv7.3-expressing cells. […] Data were analyzed using the GraphPad Prism 8.0.2 (GraphPad Software, LaJolla, CA). […]
measuredEndpoint: Kv7 opening activity (in words)

>>> assayvalue("CCCCCCC(=O)Nc1ccc(NCc2ccccc2)cc1N")
"no change in activity"
>>> assayvalue("CCCCCCC(=O)Nc1ccc(NCc2ccccc2F)cc1N")
"no change in activity"

###

- methodDescription: in vivo
- testContext: Sprague-Dawley, rat, ip, 0.3 mg/kg
measuredEndpoint: concentration at 2 h (ng/mL)
Answers are plain numbers, in ng/mL.

Measured concentration at 2 h of CC(C)(C)CC(=O)Nc1ccc(NCc2ccc(C(F)(F)F)cc2)c(F)c1N : 8.7

###

- testedOn: Kv7.2/Kv7.3 channels (Homo sapiens, UniProt O43525+O43526)
- methodDescription: FluxOR thallium-sensitive fluorescence-based assay in CHO cells stably expressing Kv7.2 + Kv7.3
- Format: cell-based
- Parameters: expressed in transfected cells
- testContext: FluxOR dose-response, slope parameter; read-out: EC50 (initial slope of the fluorescence signal)
measuredEndpoint: EC50 (µM)
Numbers only, in µM.

Provide reported EC50 for each item, in the same order as listed.
1. CCOC(=O)Nc1ccc(NCc2ccc(C(F)(F)F)cc2)c(F)c1N [RL-81]
2. CC(C)(C)CC(=O)Nc1ccc(NCc2ccc(C(F)(F)F)cc2)c(F)c1N [compound 60]
3. CCOC(=O)Nc1ccc(NCc2ccc(F)cc2)cc1N [RET, retigabine]

A)
1. 4
2. 3.2
3. 11.2

###

- methodDescription: Photostability under UV-visible light with HPLC analysis (degradation, dimer formation)
- Assay type: physicochemical
- testContext: 10 μM, buffered aqueous solution pH 7.4, 3 h UV-visible light; ± SD
measuredEndpoint: % Degradation (3h, UV) (%)
Numbers only, in %.

Known results for compounds:
>>> assayvalue("Nc1cc(NCc2ccc(C(F)(F)F)cc2)ccc1NC(=O)CCC1CCCCC1")
64.8
>>> assayvalue("CC(C)(C)CC(=O)Nc1ccc(NCc2ccc(C(F)(F)F)cc2)cc1N1CCCC1")
97.7
>>> assayvalue("CCCCCCC(=O)Nc1ccc(N(C)Cc2ccc(C(F)(F)F)cc2)cc1N")
63.3

Provide reported % Degradation (3h, UV) for each item, in the same order as listed.
1. CC(C)(C)CC(=O)Nc1ccc(NCc2ccc(C(F)(F)F)cc2)cc1N1CCCCC1
2. CC(C)(C)CC(=O)Nc1ccc(NCc2ccc(C(F)(F)F)cc2)c(F)c1N

A)
[79.8, 34.8]
